molecular target: T1, glycosylated BMP-2 expressed in CHO cells (UniProt P12643 283-396, glycosylated; biotin (biotinylated for the biosensor; site not stated)); assay: SPR; BIACORE 2000; biotinylated ligand on a streptavidin-modified CM5 chip (about 200 RU); receptor ectodomain as analyte at 1, 2, 3, 5, 10, 20 and 50 uM; HBS500 (10 mM HEPES pH 7.4, 500 mM NaCl, 3.4 mM EDTA, 0.005% P20); apparent KD from the dose dependence of equilibrium binding; details: both partners purified
T1 construct: bone morphogenetic protein 2 (BMP-2), mature ligand; also called BMP-2 (CHO cells, R&D Systems); source: bought: R&D Systems (CHO cells)
Note to self: rel. KD (against wildtype ActR-IIBECD on the same ligand) under 8 fold means yes (1), ties and anything higher get no (0).

Before answering, review these 6 worked examples.
binder="ActR-IIBECD Q80A (receptor, UniProt P27040 19-137, looked up, source: E. coli OrigamiB (DE3), purified (Ni2+-IMAC, thrombin cleavage, anion exchange, RP-HPLC)) SGRGEAETRECIYYNANWELERTNQSGLERCEGEQDKRLHCYASWRNSSGTIELVKKGCWLDDFNCYDRQECVATEENPAVYFCCCEGNFCNERFTHLPEPGGPEVTYEPPPTAPTLLT" category="yes (1)"
binder="ActR-IIBECD R46A (receptor, UniProt P27040 19-137, looked up, source: E. coli OrigamiB (DE3), purified (Ni2+-IMAC, thrombin cleavage, anion exchange, RP-HPLC)) SGRGEAETRECIYYNANWELERTNQSGLERCEGEQDKRLHCYASWANSSGTIELVKKGCWLDDFNCYDRQECVATEENPQVYFCCCEGNFCNERFTHLPEPGGPEVTYEPPPTAPTLLT" category="no (0)"
binder="ActR-IIBECD K56A (receptor, UniProt P27040 19-137, looked up, source: E. coli OrigamiB (DE3), purified (Ni2+-IMAC, thrombin cleavage, anion exchange, RP-HPLC)) SGRGEAETRECIYYNANWELERTNQSGLERCEGEQDKRLHCYASWRNSSGTIELVAKGCWLDDFNCYDRQECVATEENPQVYFCCCEGNFCNERFTHLPEPGGPEVTYEPPPTAPTLLT" category="no (0)"
binder="ActR-IIBECD D63A (receptor, UniProt P27040 19-137, looked up, source: E. coli OrigamiB (DE3), purified (Ni2+-IMAC, thrombin cleavage, anion exchange, RP-HPLC)) SGRGEAETRECIYYNANWELERTNQSGLERCEGEQDKRLHCYASWRNSSGTIELVKKGCWLDAFNCYDRQECVATEENPQVYFCCCEGNFCNERFTHLPEPGGPEVTYEPPPTAPTLLT" category="no (0)"
binder="ActR-IIBECD E34A (receptor, UniProt P27040 19-137, looked up, source: E. coli OrigamiB (DE3), purified (Ni2+-IMAC, thrombin cleavage, anion exchange, RP-HPLC)) SGRGEAETRECIYYNANWELERTNQSGLERCEGAQDKRLHCYASWRNSSGTIELVKKGCWLDDFNCYDRQECVATEENPQVYFCCCEGNFCNERFTHLPEPGGPEVTYEPPPTAPTLLT" category="yes (1)"
binder="ActR-IIBECD Y42A (receptor, UniProt P27040 19-137, looked up, source: E. coli OrigamiB (DE3), purified (Ni2+-IMAC, thrombin cleavage, anion exchange, RP-HPLC)) SGRGEAETRECIYYNANWELERTNQSGLERCEGEQDKRLHCAASWRNSSGTIELVKKGCWLDDFNCYDRQECVATEENPQVYFCCCEGNFCNERFTHLPEPGGPEVTYEPPPTAPTLLT" category="no (0)"

[ask] Would you kindly verify if rel. KD (against wildtype ActR-IIBECD on the same ligand) of ActR-IIBECD K37A (receptor, UniProt P27040 19-137, looked up, source: E. coli OrigamiB (DE3), purified (Ni2+-IMAC, thrombin cleavage, anion exchange, RP-HPLC)) SGRGEAETRECIYYNANWELERTNQSGLERCEGEQDARLHCYASWRNSSGTIELVKKGCWLDDFNCYDRQECVATEENPQVYFCCCEGNFCNERFTHLPEPGGPEVTYEPPPTAPTLLT is strictly less than 8 fold?
[reply] yes (1)

[ask] And then ActR-IIBECD L61A (receptor, UniProt P27040 19-137, looked up, also called ActR-IIBL61A; source: E. coli OrigamiB (DE3), purified (Ni2+-IMAC, thrombin cleavage, anion exchange, RP-HPLC)) SGRGEAETRECIYYNANWELERTNQSGLERCEGEQDKRLHCYASWRNSSGTIELVKKGCWADDFNCYDRQECVATEENPQVYFCCCEGNFCNERFTHLPEPGGPEVTYEPPPTAPTLLT , what is it?
[reply] yes (1)
